target: CYP2C9 (Homo sapiens); assay: CYP inhibition in human liver microsomes; details: human, human liver microsomes, probe diclofenac
Sequence (P11712 whole entry): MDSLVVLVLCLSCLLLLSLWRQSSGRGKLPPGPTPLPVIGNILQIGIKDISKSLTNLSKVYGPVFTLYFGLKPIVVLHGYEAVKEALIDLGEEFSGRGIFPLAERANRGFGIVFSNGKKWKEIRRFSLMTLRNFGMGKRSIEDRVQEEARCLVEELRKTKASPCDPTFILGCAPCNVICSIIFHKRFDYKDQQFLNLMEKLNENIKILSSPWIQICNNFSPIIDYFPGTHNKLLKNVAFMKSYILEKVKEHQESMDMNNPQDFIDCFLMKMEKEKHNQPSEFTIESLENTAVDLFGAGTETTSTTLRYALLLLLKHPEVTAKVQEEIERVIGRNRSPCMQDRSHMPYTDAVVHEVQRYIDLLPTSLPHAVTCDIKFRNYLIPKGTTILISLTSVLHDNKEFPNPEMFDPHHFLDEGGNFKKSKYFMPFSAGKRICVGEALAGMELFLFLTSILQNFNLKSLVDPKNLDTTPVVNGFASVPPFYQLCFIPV
PARAMETER MEASURED: activity at 20 min, 100 µM (%)
Dear colleague, please return just the value in %, with no unit written.

Give the reported activity at 20 min, 100 µM for this molecule. CCc1cc(Cl)c(OC)c(N2CCN(CC(O)CCNC(=O)c3cc4ccccc4[nH]3)CC2)c1 (stereo not shown)
93.4

* * *

test: Plasma protein binding, Sephadex G-25 gel filtration; format: in vitro ADME; conditions: rat, plasma, nominal 1 μM, read-out: % Bound, Mean ± SD (converted)
PARAMETER MEASURED: fraction unbound at 2 h, 1 μM
Please reply with the number alone, leaving off any unit.

Give the reported fraction unbound at 2 h, 1 μM for this molecule. CCc1cc(Cl)c(OC)c(N2CCN(CC(O)CCNC(=O)c3cc4ccccc4[nH]3)CC2)c1 (stereo not shown)
0.072

* * *

molecular target: CYP2C19 (Homo sapiens); assay: CYP inhibition in human liver microsomes; conditions: human, human liver microsomes, probe mephenytoin
Sequence (P33261 whole entry): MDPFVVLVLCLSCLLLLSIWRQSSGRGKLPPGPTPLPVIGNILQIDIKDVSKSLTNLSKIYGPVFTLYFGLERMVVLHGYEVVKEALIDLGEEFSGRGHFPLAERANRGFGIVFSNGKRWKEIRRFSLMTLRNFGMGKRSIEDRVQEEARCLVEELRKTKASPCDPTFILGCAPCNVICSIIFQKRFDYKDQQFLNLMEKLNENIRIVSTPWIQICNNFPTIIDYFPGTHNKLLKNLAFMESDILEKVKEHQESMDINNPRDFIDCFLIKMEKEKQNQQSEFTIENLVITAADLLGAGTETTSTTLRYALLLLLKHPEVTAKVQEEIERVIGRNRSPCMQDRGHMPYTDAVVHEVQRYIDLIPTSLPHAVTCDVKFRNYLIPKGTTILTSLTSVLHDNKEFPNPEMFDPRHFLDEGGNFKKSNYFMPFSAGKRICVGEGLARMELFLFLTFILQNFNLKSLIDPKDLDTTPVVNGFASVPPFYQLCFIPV
PARAMETER MEASURED: activity at 20 min, 5 µM
I'd appreciate it if you included the unit after the number.

Give the reported activity at 20 min, 5 µM for this compound. CC(=O)N1CCN(c2ccc(OCC3COC(Cn4ccnc4)(c4ccc(Cl)cc4Cl)O3)cc2)CC1 (stereo not shown) [Ketoconazole]
82.9%

* * *

test system: CYP1A2 mRNA; assay: CYP induction, mRNA, primary cultured human hepatocytes; format: in vitro ADME; conditions: Lot 348B, 3 μM, read-out: CYP1A2 mRNA Fold Induction (fold of vehicle control)
PARAMETER MEASURED: fold induction at 48 h, 3 µM
Please reply with the number alone, leaving off any unit.

Give the reported fold induction at 48 h, 3 µM for this compound. CCc1cc(Cl)c(OC)c(N2CCN(CC(O)CCNC(=O)c3cc4ccccc4[nH]3)CC2)c1 (stereo not shown) [R-VK4-116]
1.5

* * *

target: P-gp (Homo sapiens); construct: expressed in transfected cells; host or cells: MDCK-II cells; experiment: Transporter mediated assay (substrate/inhibitor), MDCK-II cells; format: in vitro ADME; conditions: human, probe quinidine 0.1 μM
Sequence (P08183 whole entry): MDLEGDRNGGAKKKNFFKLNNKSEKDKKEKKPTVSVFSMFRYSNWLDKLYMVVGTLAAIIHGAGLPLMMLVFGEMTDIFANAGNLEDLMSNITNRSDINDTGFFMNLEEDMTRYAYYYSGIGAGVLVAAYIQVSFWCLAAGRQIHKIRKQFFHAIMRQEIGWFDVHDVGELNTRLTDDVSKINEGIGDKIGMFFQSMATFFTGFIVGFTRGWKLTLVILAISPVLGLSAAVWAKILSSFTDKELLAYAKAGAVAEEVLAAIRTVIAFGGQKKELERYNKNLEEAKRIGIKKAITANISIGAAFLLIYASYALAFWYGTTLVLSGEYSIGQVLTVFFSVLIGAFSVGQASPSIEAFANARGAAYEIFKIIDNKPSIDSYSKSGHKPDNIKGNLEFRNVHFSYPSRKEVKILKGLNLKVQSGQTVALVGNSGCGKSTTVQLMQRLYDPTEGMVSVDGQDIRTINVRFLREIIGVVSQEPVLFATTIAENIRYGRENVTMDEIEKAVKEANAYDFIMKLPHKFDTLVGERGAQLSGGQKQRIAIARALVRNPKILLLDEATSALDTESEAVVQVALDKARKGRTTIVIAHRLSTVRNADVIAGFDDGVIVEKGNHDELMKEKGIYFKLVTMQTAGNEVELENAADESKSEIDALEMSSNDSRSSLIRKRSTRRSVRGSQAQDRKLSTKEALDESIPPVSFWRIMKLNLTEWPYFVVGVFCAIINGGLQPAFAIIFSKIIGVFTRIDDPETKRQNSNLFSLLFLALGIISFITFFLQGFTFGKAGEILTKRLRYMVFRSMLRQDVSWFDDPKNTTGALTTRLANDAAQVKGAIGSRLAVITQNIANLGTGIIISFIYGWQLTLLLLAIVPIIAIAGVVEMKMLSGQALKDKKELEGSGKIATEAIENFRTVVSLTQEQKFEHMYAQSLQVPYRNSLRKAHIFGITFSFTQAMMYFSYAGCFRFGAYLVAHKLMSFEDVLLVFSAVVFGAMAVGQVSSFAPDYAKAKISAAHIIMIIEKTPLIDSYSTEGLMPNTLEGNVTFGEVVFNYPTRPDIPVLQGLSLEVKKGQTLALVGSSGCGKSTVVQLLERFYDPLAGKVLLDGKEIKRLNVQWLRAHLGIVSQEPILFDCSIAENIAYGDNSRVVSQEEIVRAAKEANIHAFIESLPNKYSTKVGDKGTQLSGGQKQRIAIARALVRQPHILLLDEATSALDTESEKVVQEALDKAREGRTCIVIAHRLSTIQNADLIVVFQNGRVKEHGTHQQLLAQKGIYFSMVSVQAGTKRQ
PARAMETER MEASURED: inhibition at 10 µM (%)
Dear colleague, please return just the value in %, with no unit written.

Print P-gp (Homo sapiens) inhibition at 10 µM for CCc1cc(Cl)c(OC)c(N2CCN(CC(O)CCNC(=O)c3cc4ccccc4[nH]3)CC2)c1 (stereo not shown) .
56.5

* * *

tested on: CYP1A2 mRNA; assay: CYP induction, mRNA, primary cultured human hepatocytes; format: in vitro ADME; details: Lot 348B, 50 µM, read-out: CYP1A2 mRNA Fold Induction (fold of vehicle control)
PARAMETER MEASURED: fold induction at 48 h, 50 µM
Please reply with the number alone, leaving off any unit.

Give the reported fold induction at 48 h, 50 µM for this molecule. COc1ccc2[nH]c([S+]([O-])Cc3ncc(C)c(OC)c3C)nc2c1 (stereo not shown) [Omeprazole, reference compound]
361

* * *

test system: CYP3A4 mRNA; test: CYP induction, mRNA, primary cultured human hepatocytes; type: in vitro ADME; settings: human, primary cultured human hepatocytes, Lot 336, 0.1 μM; read-out: CYP3A4 mRNA Fold Induction (fold of vehicle control)
PARAMETER MEASURED: fold induction at 48 h, 0.1 µM
Please reply with the number alone, leaving off any unit.

Give the reported fold induction at 48 h, 0.1 µM for this compound. CCc1cc(Cl)c(OC)c(N2CCN(CC(O)CCNC(=O)c3cc4ccccc4[nH]3)CC2)c1 (stereo not shown)
1.1

* * *

system: CYP3A4 mRNA; test: CYP induction, mRNA, primary cultured human hepatocytes; type: in vitro ADME; conditions: human, primary cultured human hepatocytes, Lot 348B, 10 μM; read-out: CYP3A4 mRNA Fold Induction (fold of vehicle control)
PARAMETER MEASURED: fold induction at 48 h, 10 µM
Please reply with the number alone, leaving off any unit.

Give the reported fold induction at 48 h, 10 µM for this compound. CCc1cc(Cl)c(OC)c(N2CCN(CC(O)CCNC(=O)c3cc4ccccc4[nH]3)CC2)c1 (stereo not shown)
1.9

* * *

Target: OCT2 (Homo sapiens, UniProt O15244)
Construct: expressed in transfected cells; host or cells: MDCK-II cells
Sequence (O15244 1-555): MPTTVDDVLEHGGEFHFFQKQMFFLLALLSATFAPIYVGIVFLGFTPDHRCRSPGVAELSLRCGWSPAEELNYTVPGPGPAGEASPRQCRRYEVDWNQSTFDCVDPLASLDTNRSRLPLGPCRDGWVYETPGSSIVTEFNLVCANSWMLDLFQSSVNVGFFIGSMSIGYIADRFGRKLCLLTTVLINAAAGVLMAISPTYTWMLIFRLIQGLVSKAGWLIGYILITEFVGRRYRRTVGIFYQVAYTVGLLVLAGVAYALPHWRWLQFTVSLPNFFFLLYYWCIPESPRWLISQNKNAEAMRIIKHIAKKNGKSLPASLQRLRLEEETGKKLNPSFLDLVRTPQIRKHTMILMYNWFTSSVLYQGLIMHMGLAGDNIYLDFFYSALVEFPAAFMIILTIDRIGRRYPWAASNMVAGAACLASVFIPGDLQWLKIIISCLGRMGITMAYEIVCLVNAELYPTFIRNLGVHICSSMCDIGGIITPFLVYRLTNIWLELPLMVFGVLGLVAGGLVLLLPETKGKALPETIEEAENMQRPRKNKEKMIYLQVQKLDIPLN
Test: Transporter mediated assay (substrate/inhibitor), MDCK-II cells
Assay type: in vitro ADME
Conditions: human, polarized monolayer of MDCK-II cells expressing OCT2; OCT2, 0.1% BSA, 10 μM
PARAMETER MEASURED: inhibition at 10 µM (%)
Dear colleague, please return just the value in %, with no unit written.

Print OCT2 (Homo sapiens, UniProt O15244) inhibition at 10 µM for CCc1cc(Cl)c(OC)c(N2CCN(CC(O)CCNC(=O)c3cc4ccccc4[nH]3)CC2)c1 (stereo not shown) .
-17.4

* * *

test system: CYP3A4 mRNA; assay: CYP induction, mRNA, primary cultured human hepatocytes; assay type: in vitro ADME; conditions: human, primary cultured human hepatocytes, Lot 348B, 0.01 μM; read-out: CYP3A4 mRNA Fold Induction (fold of vehicle control)
PARAMETER MEASURED: fold induction at 48 h, 0.01 µM
Please reply with the number alone, leaving off any unit.

Give the reported fold induction at 48 h, 0.01 µM for this compound. CCc1cc(Cl)c(OC)c(N2CCN(CC(O)CCNC(=O)c3cc4ccccc4[nH]3)CC2)c1 (stereo not shown)
1.1

* * *

Molecular target: CYP1A2 (Homo sapiens, UniProt P05177)
Sequence (P05177 1-516): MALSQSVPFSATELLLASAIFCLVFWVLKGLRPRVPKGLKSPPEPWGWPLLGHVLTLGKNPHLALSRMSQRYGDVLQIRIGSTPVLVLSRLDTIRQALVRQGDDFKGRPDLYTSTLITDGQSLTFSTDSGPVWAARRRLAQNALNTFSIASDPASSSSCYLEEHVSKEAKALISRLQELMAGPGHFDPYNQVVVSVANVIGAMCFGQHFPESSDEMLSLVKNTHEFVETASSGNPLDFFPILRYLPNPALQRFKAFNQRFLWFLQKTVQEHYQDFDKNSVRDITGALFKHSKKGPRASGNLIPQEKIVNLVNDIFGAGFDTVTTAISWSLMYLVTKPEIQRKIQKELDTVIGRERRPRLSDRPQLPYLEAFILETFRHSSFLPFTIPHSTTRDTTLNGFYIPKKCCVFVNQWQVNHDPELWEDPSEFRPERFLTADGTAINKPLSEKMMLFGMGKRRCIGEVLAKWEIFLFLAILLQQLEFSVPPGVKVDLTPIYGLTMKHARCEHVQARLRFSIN
Assay: CYP inhibition in human liver microsomes
Settings: human, human liver microsomes, probe phenacetin
PARAMETER MEASURED: activity at 20 min, 30 µM (%)
Dear colleague, please return just the value in %, with no unit written.

Print CYP1A2 (Homo sapiens, UniProt P05177) activity at 20 min, 30 µM for CCc1cc(Cl)c(OC)c(N2CCN(CC(O)CCNC(=O)c3cc4ccccc4[nH]3)CC2)c1 (stereo not shown) .
88.7

* * *

molecular target: CYP3A4 (Homo sapiens); assay: in vitro; conditions: microsomes, CYP activity (% of Control) 3A4 (Midazolam)
Sequence (P08684 2-503): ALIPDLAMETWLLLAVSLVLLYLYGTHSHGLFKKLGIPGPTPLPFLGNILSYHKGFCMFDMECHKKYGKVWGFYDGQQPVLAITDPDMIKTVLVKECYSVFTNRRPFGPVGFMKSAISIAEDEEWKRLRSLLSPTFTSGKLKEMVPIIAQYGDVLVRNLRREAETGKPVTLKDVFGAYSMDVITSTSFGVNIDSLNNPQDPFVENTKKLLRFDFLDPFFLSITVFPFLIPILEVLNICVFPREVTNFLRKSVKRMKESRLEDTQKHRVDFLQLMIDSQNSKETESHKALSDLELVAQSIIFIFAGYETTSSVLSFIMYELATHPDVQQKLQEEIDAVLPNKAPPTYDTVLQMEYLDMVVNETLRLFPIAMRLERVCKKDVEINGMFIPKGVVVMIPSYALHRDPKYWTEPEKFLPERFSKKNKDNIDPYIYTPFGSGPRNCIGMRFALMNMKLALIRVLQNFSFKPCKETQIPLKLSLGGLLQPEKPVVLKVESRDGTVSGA
PARAMETER MEASURED: activity at 20 min, 3 µM (%)
Dear colleague, please return just the value in %, with no unit written.

compound="CCc1cc(Cl)c(OC)c(N2CCN(CC(O)CCNC(=O)c3cc4ccccc4[nH]3)CC2)c1 (centres unmarked) [R-VK4-116]" output_unit=% meas_value=95.6

Could you now look at the following compound, please?
Give the reported activity at 20 min, 3 µM for this compound. Nc1ccc(S(=O)(=O)Nc2ccnn2-c2ccccc2)cc1 [Sulfaphenazole]
98.7
